biological target: T1, human LPAM-1-Fc (alpha4-Fc/beta7-Fc heterodimer) (human); assay: SPR (BIACORE), retest with new polypeptide preparations and new LPAM-1-Fc
T1 construct: Soluble heterodimer from CHO cells, Protein A purified
T1 sequence (chain, as listed by the source limits assumed, chain 1 of 2): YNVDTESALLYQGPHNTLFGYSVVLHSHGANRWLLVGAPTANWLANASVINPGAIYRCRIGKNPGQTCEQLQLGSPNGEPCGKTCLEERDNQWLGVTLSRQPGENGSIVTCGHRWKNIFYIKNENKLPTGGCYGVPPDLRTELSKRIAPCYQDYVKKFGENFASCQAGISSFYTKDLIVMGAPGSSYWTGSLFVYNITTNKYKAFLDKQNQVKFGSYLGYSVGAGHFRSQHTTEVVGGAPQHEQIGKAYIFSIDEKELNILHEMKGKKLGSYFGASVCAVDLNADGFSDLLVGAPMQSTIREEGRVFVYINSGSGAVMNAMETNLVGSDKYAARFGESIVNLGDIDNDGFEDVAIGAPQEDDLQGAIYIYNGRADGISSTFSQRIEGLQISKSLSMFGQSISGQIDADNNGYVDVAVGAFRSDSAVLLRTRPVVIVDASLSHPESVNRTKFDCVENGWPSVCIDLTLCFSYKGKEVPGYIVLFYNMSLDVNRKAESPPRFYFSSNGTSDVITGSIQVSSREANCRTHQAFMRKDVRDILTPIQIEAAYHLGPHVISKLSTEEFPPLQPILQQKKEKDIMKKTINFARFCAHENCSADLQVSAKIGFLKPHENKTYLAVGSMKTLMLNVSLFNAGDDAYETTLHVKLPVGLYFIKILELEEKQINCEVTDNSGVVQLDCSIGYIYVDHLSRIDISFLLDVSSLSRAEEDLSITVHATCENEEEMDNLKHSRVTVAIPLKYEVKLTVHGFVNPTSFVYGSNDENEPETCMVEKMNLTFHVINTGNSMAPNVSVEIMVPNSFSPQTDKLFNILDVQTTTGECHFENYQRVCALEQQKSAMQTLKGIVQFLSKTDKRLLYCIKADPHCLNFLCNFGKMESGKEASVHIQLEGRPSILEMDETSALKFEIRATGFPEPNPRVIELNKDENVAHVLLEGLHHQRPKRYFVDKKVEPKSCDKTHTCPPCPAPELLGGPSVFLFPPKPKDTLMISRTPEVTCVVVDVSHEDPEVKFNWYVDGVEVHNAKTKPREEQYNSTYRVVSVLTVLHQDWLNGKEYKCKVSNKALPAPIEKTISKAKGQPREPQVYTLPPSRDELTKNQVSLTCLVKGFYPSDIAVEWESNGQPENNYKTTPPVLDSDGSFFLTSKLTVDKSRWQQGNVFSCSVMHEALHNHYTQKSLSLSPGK
T1 sequence (chain, as listed by the source limits assumed, chain 2 of 2): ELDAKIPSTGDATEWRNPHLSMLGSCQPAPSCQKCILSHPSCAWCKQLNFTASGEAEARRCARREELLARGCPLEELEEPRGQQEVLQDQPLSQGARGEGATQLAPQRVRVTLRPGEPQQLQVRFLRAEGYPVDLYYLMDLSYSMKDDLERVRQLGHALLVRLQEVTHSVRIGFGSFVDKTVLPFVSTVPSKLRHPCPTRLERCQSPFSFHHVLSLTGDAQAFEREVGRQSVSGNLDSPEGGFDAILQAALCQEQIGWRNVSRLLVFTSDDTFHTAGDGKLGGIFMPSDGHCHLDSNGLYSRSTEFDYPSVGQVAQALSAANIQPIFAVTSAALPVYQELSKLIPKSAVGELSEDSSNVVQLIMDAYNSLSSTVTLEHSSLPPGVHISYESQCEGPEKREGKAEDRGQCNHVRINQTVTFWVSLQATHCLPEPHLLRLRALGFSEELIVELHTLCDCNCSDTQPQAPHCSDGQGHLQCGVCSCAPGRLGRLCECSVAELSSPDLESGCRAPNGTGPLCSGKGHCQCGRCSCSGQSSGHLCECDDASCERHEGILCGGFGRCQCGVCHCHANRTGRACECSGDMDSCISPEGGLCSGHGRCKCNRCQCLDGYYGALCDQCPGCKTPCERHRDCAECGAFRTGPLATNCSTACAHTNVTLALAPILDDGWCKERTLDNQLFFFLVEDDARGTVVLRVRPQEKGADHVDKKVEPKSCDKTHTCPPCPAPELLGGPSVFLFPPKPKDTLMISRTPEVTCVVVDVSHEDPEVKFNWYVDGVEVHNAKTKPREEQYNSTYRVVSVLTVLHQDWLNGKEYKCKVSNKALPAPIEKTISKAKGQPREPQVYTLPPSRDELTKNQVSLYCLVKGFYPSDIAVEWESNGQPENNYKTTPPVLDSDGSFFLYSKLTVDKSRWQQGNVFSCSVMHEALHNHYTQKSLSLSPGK
In this section we review reported pKd values for a set of binders.
The scale used: pKd is minus the common logarithm of the concentration in molar units.

The cases that follow already have their pKd on record.
binder: 2D-VCAM-1 variant Clone 47 (ligand, also called Clone 047; not shown: His tag) FKIETTPESRYLAQIGDSVSLTCSTTGCESPFFSWRPLLDSPLNGKVTNEGTTSTLTMNPVSFGNEHSYLCTATCESRKLEKGIQVEIYSFPKDPEIHLSGPLEAGKPITVKCSVADVYPFDRLEIDLLKGDHLMKSQEFLEDADRKSLETKSLEVTFTPVIEDIGKVLVCRAKLHIDEMDSVPTVRQAVKELQVYISP
pKd: 7.40

binder: 2D-VCAM-1 variant Clone 46 (ligand, also called Clone 046; not shown: His tag) FKIETTPESRYLAQIGDSVSLTCSTTGCESPFFSWRPQLDAPLNGKVTNEGTTSTLTMNPVSFGNEHSYLCTATCESRKLEKGIQVEIYSFPKDPEIHLSGPLEAGKPITVKCSVADVYPFDRLEIDLLKGDHLMKSQEFLEDADRKSLETKSLEVTFTPVIEDIGKVLVCRAKLHIDEMDSVPTVRQAVKELQVYISP
pKd: 7.11

binder: 2D-VCAM-1 variant Clone 59 (ligand, also called Clone 059; not shown: His tag) FKIETTPESRYLAQIGDSVSLTCSTTGCESPFFSWRPLLDSPLNGKVTNEGTTSTLTMNPVSFGNEHSYLCTATCESRKLEKGIQVEIYSFPKDPEIHLSGPLEAGKPITVKCSVADVYPFDRLEIDLLKGDHLMKSQEFFEDAAWKSLETKSLEVTFTPVIEDIGKVLVCRAKLHIDEMDSVPTVRQAVKELQVYISP
pKd: 8.59

Query binder follows.
Ask: Could you share which pKd value was measured for 2D-VCAM-1 variant Clone 146 (ligand, not shown: small tags and cut ends) FKIETTPESRYLAQIGDSVSLTCSTTGCESPLFFWRPLLDSPLNGKVTNEGTTSTLTMNPVSFGNEHSYLCTARCESRSLEKGIQVEIYSFPKDPEIHLSGPLEAGKPITVKCSVADVYPFDRLEIDLLKGDHLMKSQEFLEDADRKSLETKSLEVTFTPVIEDIGKVLVCRAKLHIDEMDSVPTVRQAVKELQVYISP ?
Reply: 8.92

Source listed as patent US20120135912A1.
